- Test system: MOLT-4
- EXPERIMENTAL DETAILS: NCI tumour cell line growth inhibition, 48 h
Active and inactive are the calls of the source. Cut-off read from the data, not from the text of the source: active = GI50 up to about 1.1 µM and inactive = higher. Starred links: 1 amine or outer side, 2 acyl side, 3 side chain; linkers in the order of their positions; H or OH if unused. Non-standard residues stand in square brackets, D forms with d. Residues, ends and D or L forms follow the SMILES beside them. *: point of attachment. X47 = CCC(=O)CC1CC(C)CC(C(=O)[*:2])N1[*:1]; X46 = CCCCCCCCC(C)C(=O)*; Aib = CC(C)(N)C(=O)O; X48 = CC(CN(C)CCO)N*
Select the matching outcome among t = active, f = inactive

// below: answered compounds
COMPOUND | CAT
O=C(O)c1nc(-c2ccc(Cl)c(Cl)c2)nc2ccc(Cl)cc12 | f
CCOC(=O)c1sc2nc(SC)nc3c2c1NC(=O)CN3c1cccc(F)c1 | f

What did this assay record as the result for CCCCCCCCC(C)C(=O)N1CCCC1C(=O)N1C(CC(=O)CC)CC(C)CC1C(=O)NC(C)C(=O)NC(C)(C)C(=O)NC(C)(C)C(=O)NC(C(=O)NC(C)C(=O)NC(C)(C)C(=O)NC(C)(C)C(=O)NC(C)CN(C)CCO)C(C)CC (configuration not stated) (X46-P[X47]A[Aib][Aib]IA[Aib][Aib]-X48; configuration not given here) ?
t

What did this assay record as the result for "Cc1cc2nc3c(C#N)c4c(c(Nc5ccc(Cl)cc5)n3c2cc1C)CCC4" ?
f

What did this assay record as the result for C[C@]12CC[C@H](O)CC1=CC[C@@H]1[C@@H]2CC[C@]2(C)C(=O)CC[C@@H]12 [PRASTERONE] ?
f

What did this assay record as the result for "CC(=O)OCCOCn1cnc2c(Cl)nc(Cl)nc21" ?
f

What did this assay record as the result for "O=C(Nc1ccc(S(=O)(=O)Nc2ncccn2)cc1)c1c2ccccc2nc2ccccc12" ?
f
